System: Escherichia coli
Experiment: Antibacterial activity against Escherichia coli JM83 harboring pHF022 containing aminoglycoside 2''-2a D268N mutant by broth microdilution method
Type: functional
Quick list: MIC per entry.

{"compound": "NC[C@@H]1O[C@@H](O[C@H]2[C@H](O)[C@@H](O[C@H]3O[C@H](CO)[C@@H](O)[C@H](N)[C@H]3O)[C@H](N)C[C@@H]2N)[C@@H](O)[C@H](O)[C@H]1O", "MIC / µg/mL": 256}
{"compound": "NC[C@H]1O[C@H](O[C@H]2[C@H](O)[C@@H](O[C@H]3O[C@H](CO)[C@@H](O)[C@H](N)[C@H]3O)[C@H](N)C[C@@H]2N)[C@H](N)C[C@@H]1O", "MIC / µg/mL": 32}
{"compound": "CCN[C@@H]1C[C@H](N)[C@@H](O[C@H]2OC(CN)=CC[C@H]2N)[C@H](O)[C@H]1O[C@H]1OC[C@](C)(O)[C@H](NC)[C@H]1O", "MIC / µg/mL": 4}
{"compound": "NC[C@@H]1CC[C@@H](N)[C@@H](O[C@H]2[C@H](O)[C@@H](O[C@H]3O[C@H](CO)[C@@H](O)[C@H](N)[C@H]3O)[C@H](N)C[C@@H]2N)O1", "MIC / µg/mL": 32}
{"compound": "CN[C@@H]1[C@@H](O)[C@@H](O[C@@H]2[C@@H](O)[C@H](O[C@H]3O[C@H](C(C)O)[C@@H](O)[C@H](O)[C@H]3N)[C@@H](N)C[C@H]2N)OC[C@]1(C)O (single isomer, unassigned)", "MIC / µg/mL": 512}
